Test system: ACHN
Assay remarks: NCI tumour cell line growth inhibition, 48 h
The source made the active and inactive calls. No stated cut-off is given here; in the data, active = GI50 up to about 1.1 µM and inactive = higher.
As shown below, each of these compounds has a reported GI50 value.

>>> endpoint_result("Cc1cc(C)n(-c2nc(-n3nc(C)cc3C)nc(-n3nc(C)cc3C)n2)n1")
"38.6 µM (inactive)"
>>> endpoint_result("CC1=C(C(=O)Nc2ccccc2)C(c2ccc(Cl)c(Cl)c2)C(C(=O)Nc2ccccc2)=C(C)N1")
"12.1 µM (inactive)"
>>> endpoint_result("CC(CN1NC12CCCC2)N1NC12CCCC2 (configuration not stated)")
"> 100 µM (inactive)"
>>> endpoint_result("N#CCCN(c1ccc(-c2nnc(NC(=O)CNNC(=O)CC(=O)Nc3ccccc3)s2)cc1)S(=O)(=O)c1ccccc1")
"> 100 µM (inactive)"
>>> endpoint_result("COc1ccc2c(c1)/C(=C/CCN(C)C)c1ccccc1S2")
"> 100 µM (inactive)"

// field: GI50; key: "CN(C(=O)Cc1ccccc1)n1cnn(CC(=O)OC(C)(C)C)c1=S" ; value = > 10 µM (inactive)

// field: GI50; key: "COc1cc(OC)cc(-n2c(N)c(-c3nc4ccccc4n3C)c3ccc([N+](=O)[O-])cc3c2=O)c1" ; value = 83.4 µM (inactive)

// field: GI50; key: "c1cncc(CNc2ncn[nH]2)c1" ; value = > 100 µM (inactive)

// field: GI50; key: "Cn1cco/c1=N/c1ccc(Cl)c(Cl)c1" ; value = > 10 µM (inactive)

// field: GI50; key: CC1(C)OCC2OC3([C@H](O)CCO)OC(C)(C)OC3C2O1 (some centres not stated) ; value = > 100 µM (inactive)

// field: GI50; key: "COc1ccc(-n2cnn3c(=O)c4cn[nH]c4nc23)cc1" ; value = > 10 µM (inactive)

// field: GI50; key: "O=C(N/N=C/c1ccc(Cl)cc1)c1c(Cl)c(Cl)c(Cl)c(Cl)c1-c1nc2ccccc2[nH]1" ; value = 64.6 µM (inactive)

// field: GI50; key: "Cc1cc(C)n(C2=NS(=O)(=O)c3ccccc3N2C)n1" ; value = > 100 µM (inactive)

// field: GI50; key: CC12CC(C/C1=N/O)C(C)(C)C2 (configuration not stated) ; value = > 100 µM (inactive)

* * *

Tested on: SK-MEL-2
Assay remarks: NCI tumour cell line growth inhibition, 48 h
Active and inactive are the calls of the source. Cut-off read from the data, not from the text of the source: active = GI50 up to about 1.1 µM and inactive = higher.
Measured endpoint: GI50

>>> endpoint_result("O=C(O)C1CCCCC1c1c2ccc(=O)cc-2oc2cc(O)ccc12 (stereo not given)")
"29.4 µM (inactive)"
>>> endpoint_result("CCCCCCCCCCCCCC[S+](C)C")
"2.02 µM (inactive)"
>>> endpoint_result("CCCCCCCCC[n+]1cccc(C2C(C(=O)OCC)=C(C)NC(C)=C2C(=O)OCC)c1")
"1.65 µM (inactive)"
>>> endpoint_result("CC1(C)CCc2cc3c(cc2O1)OC(C)(C)CC3=O")
"> 100 µM (inactive)"
>>> endpoint_result("[N-]=[N+]=CC(=O)OCC(N)C(=O)O (stereo not given)")
"3.28 µM (inactive)"
>>> endpoint_result("COc1ccc2c(c1)CCc1cc(OC)ccc1/[N+]([O-])=[N+]\\2[O-]")
"20.9 µM (inactive)"
>>> endpoint_result("COc1ccc2nc(NC(=O)C(=O)C(C#N)c3ccc(Cl)c(Cl)c3)sc2c1 (stereo not given)")
"> 100 µM (inactive)"
>>> endpoint_result("CO[C@@H]1[C@@H](OC2OC(C)C(OC3CC(C)(O)C(OC(=O)CC(C)C)C(C)O3)C(N(C)C)C2O)[C@@H](CC=O)C[C@@H](C)C(=O)/C=C/C2O[C@H]2C[C@@H](C)OC(=O)C[C@H]1OC(C)=O (stereo not given in full)")
"18.8 µM (inactive)"

// field: GI50; key: C/C=C(C)/C=C/CC(C)CCC=C(C)C (stereo not given) ; value = > 100 µM (inactive)

// field: GI50; key: "CC(C)c1cc(C(F)(F)F)nc(NNc2nc(C(C)C)cc(C(F)(F)F)n2)n1" ; value = > 100 µM (inactive)
